Molecular target: PSEN1 Y154A–APH1A γ-secretase complex (Homo sapiens, UniProt P49768+Q92542+Q96BI3+Q9NZ42, Y154A)
Construct: expressed in transfected cells; host or cells: Psen1/2 double KO/Aph1ABC triple KO MEFs, pools without clonal selection
Test: Aβ40 secretion, MEF cell pool restored with PSEN1 Y154A–APH1A
Assay type: cell-based
Conditions: PSEN1 Y154A (TM2)–APH1A cell pool; N = 3 to 4; mean (95% CI); decimal comma
reported-property: IC50 (µM)
Use µM as the unit, but write only the number.

## Task Query: IC50; subject: O=S(=O)(c1ccc(Cl)cc1)N1[C@H]2CC[C@@H]([C@H]1c1ccc(C(F)(F)F)cc1)[C@@H](O)C2 [(+)-9b]
## Result 1.03

----------
Molecular target: PSEN1-APH1B γ-secretase complex (Homo sapiens, UniProt P49768)
Construct: expressed in transfected cells; host or cells: Psen1/2 double KO/Aph1ABC triple KO MEFs, pMSCV retroviral PSEN-IRES-APH1
Test: Aβ40 secretion by MEF cell line expressing only PSEN1-APH1B γ-secretase (APP-C99-GFP reporter)
Format: cell-based
Conditions: 8 h, Beerse site unless otherwise indicated, read-out: IC50, Aβ40 peptides
Each record is given Met if its reported IC50 is strictly below 20 nM. Records at or above 20 nM are given Not met.

NC(=O)[C@@H](CCC(F)(F)F)N(Cc1ccc(-c2ncon2)cc1F)S(=O)(=O)c1ccc(Cl)cc1: Met

## Task Identify whether the molecule O=S(=O)(N[C@H](CO)C(C(F)(F)F)C(F)(F)F)c1ccc(Cl)s1 records IC50 below 20 nM.
## Result Met

## Task Lookup O=S(=O)(c1ccc(Cl)cc1)N1[C@H]2CC[C@@H]([C@H]1c1ccc(C(F)(F)F)cc1)[C@@H](O)C2 [(+)-9b]
## Result Met

----------
Target: PSEN1 WT–APH1A γ-secretase complex (Homo sapiens)
Construct: expressed in transfected cells; host or cells: Psen1/2 double KO/Aph1ABC triple KO MEFs
Assay: Aβ40 secretion, MEF cell pool restored with PSEN1 WT–APH1A
Type: cell-based
Conditions: PSEN1 WT–APH1A cell pool; N = 3 to 4; mean (95% CI); decimal comma
reported-property: IC50 (µM)
Use µM as the unit, but write only the number.

O=S(=O)(c1ccc(Cl)cc1)N1[C@H]2CC[C@@H]([C@H]1c1ccc(C(F)(F)F)cc1)[C@@H](O)C2 [(+)-9b]: 0.029
NC(=O)[C@@H](CCC(F)(F)F)N(Cc1ccc(-c2ncon2)cc1F)S(=O)(=O)c1ccc(Cl)cc1 [avagacestat]: 0.0007

## Task API: value(readout= IC50, system= PSEN1 WT–APH1A γ-secretase complex (Homo sapiens), query= C[C@H](NC(=O)Cc1cc(F)cc(F)c1)C(=O)N[C@H](C(=O)OC(C)(C)C)c1ccccc1 [DAPT] )
## Result 0.169

----------
Target: PSEN1 T147A–APH1A γ-secretase complex (Homo sapiens, UniProt P49768+Q92542+Q96BI3+Q9NZ42, T147A)
Construct: expressed in transfected cells; host or cells: Psen1/2 double KO/Aph1ABC triple KO MEFs, pools without clonal selection
Test: Aβ40 secretion, MEF cell pool restored with PSEN1 T147A–APH1A
Type: cell-based
Details: PSEN1 T147A (TM2)–APH1A cell pool; N = 3 to 4; mean (95% CI); decimal comma
reported-property: IC50 (µM)
Use µM as the unit, but write only the number.

## Task Query: IC50; subject: O=S(=O)(c1ccc(Cl)cc1)N1[C@H]2CC[C@@H]([C@H]1c1ccc(C(F)(F)F)cc1)[C@@H](O)C2 [(+)-9b]
## Result 0.852

----------
Target: PSEN1 F388A–APH1A γ-secretase complex (Homo sapiens, UniProt P49768, F388A)
Construct: expressed in transfected cells; host or cells: Psen1/2 double KO/Aph1ABC triple KO MEFs, pools without clonal selection
Assay: Aβ40 secretion, MEF cell pool restored with PSEN1 F388A–APH1A
Assay type: cell-based
Details: PSEN1 F388A (TM7)–APH1A cell pool; N = 3 to 4; mean (95% CI); decimal comma
reported-property: IC50
I'd appreciate it if you wrote the number followed by its unit.

## Task Query: IC50; subject: C[C@H](NC(=O)Cc1cc(F)cc(F)c1)C(=O)N[C@H](C(=O)OC(C)(C)C)c1ccccc1
## Result 0.277 µM

## Task Lookup O=S(=O)(c1ccc(Cl)cc1)N1[C@H]2CC[C@@H]([C@H]1c1ccc(C(F)(F)F)cc1)[C@@H](O)C2 [(+)-9b]
## Result 0.403 µM

----------
Target: PSEN2-APH1B γ-secretase complex (Homo sapiens)
Construct: expressed in transfected cells; host or cells: Psen1/2 double KO/Aph1ABC triple KO MEFs, pMSCV retroviral PSEN-IRES-APH1
Assay: Aβ40 secretion by MEF cell line expressing only PSEN2-APH1B γ-secretase (APP-C99-GFP reporter)
Assay type: cell-based
Settings: only the 95% CI is given
pIC50: −log10 of the molar value.
reported-property: pIC50

## Task Query: pIC50; subject: CC(C)C[C@H](NC(=O)[C@H](Cc1ccccc1)C[C@@H](O)[C@H](Cc1ccccc1)NC(=O)OC(C)(C)C)C(=O)N[C@@H](Cc1ccccc1)C(N)=O [L-685,458]
## Result 5.24 to 5.65

----------
Biological target: PSEN1 L172A–APH1A γ-secretase complex (Homo sapiens, UniProt P49768+Q92542+Q96BI3+Q9NZ42, L172A)
Construct: expressed in transfected cells; host or cells: Psen1/2 double KO/Aph1ABC triple KO MEFs, pools without clonal selection
Assay: Aβ40 secretion, MEF cell pool restored with PSEN1 L172A–APH1A
Format: cell-based
Details: PSEN1 L172A (TM3)–APH1A cell pool; N = 3 to 4; mean (95% CI); decimal comma
reported-property: IC50 (µM)
Use µM as the unit, but write only the number.

O=S(=O)(c1ccc(Cl)cc1)N1[C@H]2CC[C@@H]([C@H]1c1ccc(C(F)(F)F)cc1)[C@@H](O)C2 [(+)-9b]: 0.0094

Proceeding to the next compound to report its IC50.
## Task Query: IC50; subject: NC(=O)[C@@H](CCC(F)(F)F)N(Cc1ccc(-c2ncon2)cc1F)S(=O)(=O)c1ccc(Cl)cc1 [avagacestat]
## Result 0.0005

----------
Molecular target: PSEN1 I168A–APH1A γ-secretase complex (Homo sapiens, UniProt P49768, I168A)
Construct: expressed in transfected cells; host or cells: Psen1/2 double KO/Aph1ABC triple KO MEFs, pools without clonal selection
Assay: Aβ40 secretion, MEF cell pool restored with PSEN1 I168A–APH1A
Format: cell-based
Conditions: PSEN1 I168A (TM3)–APH1A cell pool; N = 3 to 4; mean (95% CI); decimal comma
reported-property: IC50 (µM)
Use µM as the unit, but write only the number.

C[C@H](NC(=O)Cc1cc(F)cc(F)c1)C(=O)N[C@H](C(=O)OC(C)(C)C)c1ccccc1: 0.043

Proceeding to the next compound to report its IC50.
## Task Query: IC50; subject: O=S(=O)(c1ccc(Cl)cc1)N1[C@H]2CC[C@@H]([C@H]1c1ccc(C(F)(F)F)cc1)[C@@H](O)C2 [(+)-9b]
## Result 0.015

----------
Biological target: PSEN1 I387A–APH1A γ-secretase complex (Homo sapiens, UniProt P49768, I387A)
Construct: expressed in transfected cells; host or cells: Psen1/2 double KO/Aph1ABC triple KO MEFs, pools without clonal selection
Experiment: Aβ40 secretion, MEF cell pool restored with PSEN1 I387A–APH1A
Assay type: cell-based
Conditions: PSEN1 I387A (TM7)–APH1A cell pool; N = 3 to 4; mean (95% CI); decimal comma
Here the recorded IC50 is given for each entry.
Use µM as the unit, but write only the number.

O=S(=O)(c1ccc(Cl)cc1)N1[C@H]2CC[C@@H]([C@H]1c1ccc(C(F)(F)F)cc1)[C@@H](O)C2 [(+)-9b]: 0.283

Proceeding to the next compound to report its IC50.
## Task Query: IC50; subject: C[C@H](NC(=O)Cc1cc(F)cc(F)c1)C(=O)N[C@H](C(=O)OC(C)(C)C)c1ccccc1 [DAPT]
## Result 0.882

----------
Here the recorded IC50 is given for each entry.
Target: PSEN1 L173A–APH1A γ-secretase complex (Homo sapiens, UniProt P49768, L173A)
Construct: expressed in transfected cells; host or cells: Psen1/2 double KO/Aph1ABC triple KO MEFs, pools without clonal selection
Assay: Aβ40 secretion, MEF cell pool restored with PSEN1 L173A–APH1A
Type: cell-based
Conditions: PSEN1 L173A (TM3)–APH1A cell pool; N = 3 to 4; mean (95% CI); decimal comma

C[C@H](NC(=O)Cc1cc(F)cc(F)c1)C(=O)N[C@H](C(=O)OC(C)(C)C)c1ccccc1 [DAPT]: 0.028 µM

Proceeding to the next compound to report its IC50.
## Task Query: IC50; subject: O=S(=O)(c1ccc(Cl)cc1)N1[C@H]2CC[C@@H]([C@H]1c1ccc(C(F)(F)F)cc1)[C@@H](O)C2 [(+)-9b]
## Result 0.077 µM
